Reference for the values: PubChem BioAssay AID777

- study.system: Cytochrome P450 2C9 (Homo sapiens)
- assay: blockers of cytochrome P450 2C9 activity – biochemical, luminescence, ADME assay, primary screen (AID 777)
- conditions: CYP2C9 Supersomes, luciferin-H conversion, at 5 µM, hits give high values
The whole screen tested about 96,000 compounds, of which about 19,000 (20%) were called active. The list is a sample of the results.
// not fulfilled strictly below 30% in inhibition; fulfilled otherwise

{"columns": ["molecule", "study.system", "classification"],
 "data": [
  ["CCCCOc1ccc(-c2ncc(C(=O)OCC)c(N)n2)cc1", "Cytochrome P450 2C9 (Homo sapiens)", "not fulfilled"],
  ["CC1(c2ccccc2Cl)NC(=O)N(CC(=O)NC(=O)NCc2ccco2)C1=O (stereo not drawn)", "Cytochrome P450 2C9 (Homo sapiens)", "fulfilled"],
  ["COc1ccc(C(=O)NC(=S)Nc2ccccc2N2CCN(S(C)(=O)=O)CC2)cc1OC", "Cytochrome P450 2C9 (Homo sapiens)", "fulfilled"],
  ["CCOC(=O)c1c(C)nc(-c2ccccc2)nc1NC(=O)C(C)C", "Cytochrome P450 2C9 (Homo sapiens)", "not fulfilled"],
  ["O=C(Cn1nnc(-c2ccc(CN3CCOCC3)cc2)n1)NC1CCCCC1", "Cytochrome P450 2C9 (Homo sapiens)", "not fulfilled"],
  ["CC(C)(C)NC(=O)NC(=O)COC(=O)Cn1c(C(F)(F)F)nc2ccccc21", "Cytochrome P450 2C9 (Homo sapiens)", "fulfilled"],
  ["COc1ccc(N(CC(=O)NC2CCCCCCC2)S(=O)(=O)c2c(C)nn(C)c2C)cc1", "Cytochrome P450 2C9 (Homo sapiens)", "fulfilled"],
  ["O=C(CN1CCCCCC1)Nc1ccc(Br)cc1Br", "Cytochrome P450 2C9 (Homo sapiens)", "not fulfilled"],
  ["CCOC(=O)N1CCN(S(=O)(=O)c2ccc(C(=O)Nc3ccc(F)cc3F)cc2)CC1", "Cytochrome P450 2C9 (Homo sapiens)", "not fulfilled"],
  ["Cc1cc(C)cc(N(C(C)C(=O)Nc2c(C)n(C)n(-c3ccccc3)c2=O)S(C)(=O)=O)c1 (stereo not drawn)", "Cytochrome P450 2C9 (Homo sapiens)", "not fulfilled"],
  ["O=C(/C=C/c1ccc(Cl)cc1Cl)c1cccnc1", "Cytochrome P450 2C9 (Homo sapiens)", "not fulfilled"],
  ["COc1cccc(N2CCN(C3CC(=O)N(c4ccc(Cl)cc4)C3=O)CC2)c1 (stereo not drawn)", "Cytochrome P450 2C9 (Homo sapiens)", "not fulfilled"],
  ["CCOC(=O)c1cnc(-c2ccccc2)nc1Oc1ccc(C)cc1", "Cytochrome P450 2C9 (Homo sapiens)", "fulfilled"],
  ["Nn1c(SCC(=O)NC2CCCC2)nnc1-c1ccccc1F", "Cytochrome P450 2C9 (Homo sapiens)", "not fulfilled"],
  ["CCOC(=O)CSc1nnc(-c2cccc(Br)c2)o1", "Cytochrome P450 2C9 (Homo sapiens)", "not fulfilled"],
  ["O=C(CN1CCN(S(=O)(=O)/C=C/c2ccccc2)CC1)NC(=O)NCc1ccco1", "Cytochrome P450 2C9 (Homo sapiens)", "fulfilled"],
  ["COc1cccc(N(CC(=O)NC2CCCC2)C(=O)Cn2nnc(-c3ccc(C)cc3)n2)c1", "Cytochrome P450 2C9 (Homo sapiens)", "fulfilled"]
]}

###

- study.system: Cytochrome P450 2C9 (Homo sapiens) (UniProt P11712)
- Sequence (P11712 whole entry, looked up): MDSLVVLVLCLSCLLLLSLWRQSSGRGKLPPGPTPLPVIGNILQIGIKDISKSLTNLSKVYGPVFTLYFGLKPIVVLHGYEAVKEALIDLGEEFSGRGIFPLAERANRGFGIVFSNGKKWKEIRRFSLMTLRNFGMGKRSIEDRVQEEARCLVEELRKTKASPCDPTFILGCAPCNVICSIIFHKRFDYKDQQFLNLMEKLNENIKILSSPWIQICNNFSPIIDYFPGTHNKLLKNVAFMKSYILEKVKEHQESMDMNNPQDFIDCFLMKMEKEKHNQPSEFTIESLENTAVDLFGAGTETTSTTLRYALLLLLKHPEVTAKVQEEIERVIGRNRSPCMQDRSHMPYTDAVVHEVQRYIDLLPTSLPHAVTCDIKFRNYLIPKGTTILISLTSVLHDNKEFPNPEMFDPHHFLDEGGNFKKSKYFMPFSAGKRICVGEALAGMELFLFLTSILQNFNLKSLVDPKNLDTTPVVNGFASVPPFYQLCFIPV
- assay: blockers of cytochrome P450 2C9 activity – biochemical, luminescence, ADME assay, primary screen (AID 777)
- conditions: CYP2C9 Supersomes, luciferin-H conversion, at 5 µM, hits give high values
About 19,000 (20%) of roughly 96,000 compounds were called active. The list is a sample of the results.

{"columns": ["compound", "quantity.unit", "inhibition"],
 "data": [
  ["CCOc1cccc(-c2nnc3sc(COc4ccc(OC)cc4)nn23)c1", "%", 20.9],
  ["Cc1n[nH]c(=O)n1-c1ccc(Oc2ccccc2)cc1", "%", 0.7],
  ["CCOc1ccc(-c2cn(S(=O)(=O)c3cccc4nsnc34)nc2N)cc1", "%", 62.6],
  ["COc1ccc(-n2nnnc2SCC(=O)c2ccc(OC)c(OC)c2)cc1", "%", 45.6],
  ["O=C(COC(=O)CCc1c[nH]c(=O)[nH]1)Nc1ccccc1Cl", "%", -6],
  ["CC(C)CCNC(=O)C1CCCN(S(=O)(=O)c2ccc(F)cc2)C1 (stereo not given)", "%", -10.8],
  ["COC(=O)NC1(C(F)(F)F)NC(=O)N(C2CCCCC2)C1=O (stereo not given)", "%", 19.6],
  ["COc1ccc(N2C(=O)C3CCCN3C2c2cc(OC)c(OC)cc2OC)cc1 (stereo not given)", "%", -1.9],
  ["Cc1ccc2c(CSc3nncs3)cc(=O)oc2c1", "%", 67],
  ["CC(=O)Nc1ccc(NC(=O)CN2CCCC(C)C2)c(Cl)c1 (stereo not given)", "%", 18.3],
  ["COCc1[nH][nH]c(=O)c1C=Nc1ccc(F)cc1F", "%", -10],
  ["O=C(Nc1nccs1)c1cc(S(=O)(=O)N2CCOCC2)c(Cl)cc1Cl", "%", 15.1],
  ["CCSc1nc(-c2ccc(OC)cc2)cc(-c2ccc(OC)cc2)c1C#N", "%", 75.3],
  ["CCOc1cc(-c2cc(-c3ccc(OC)cc3)nc(N)c2C#N)ccc1O", "%", 47.2],
  ["O=C1CSC(c2ccc(Cl)cc2)N1 (stereo not given)", "%", -1]
]}
